- ASSAY_SYSTEM: Fuc(a1-2)[GalNAc(a1-3)]Gal(b1-3)GlcNAc(b1-6)GalNAc
- MEASUREMENT_PROTOCOL: glycan array binding signal (z-score within array); higher = stronger binding
- MEASUREMENT_CONTEXT: glycan notation: IUPAC condensed, linker removed
The entries come from a sample that favours the strongest signals as a whole.
MEASUREMENT_TYPE: glycan array binding signal (z-score)

• DBA (Dolichos biflorus) (protein) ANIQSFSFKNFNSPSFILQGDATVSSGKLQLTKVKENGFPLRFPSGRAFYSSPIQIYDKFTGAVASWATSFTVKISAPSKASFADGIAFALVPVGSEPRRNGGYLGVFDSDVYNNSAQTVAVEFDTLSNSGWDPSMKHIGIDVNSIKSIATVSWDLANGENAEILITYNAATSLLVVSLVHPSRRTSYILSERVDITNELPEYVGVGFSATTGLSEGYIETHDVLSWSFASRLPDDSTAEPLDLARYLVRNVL = -0.113
• Cohesin-marm-DC-ASGPR-CRD (protein) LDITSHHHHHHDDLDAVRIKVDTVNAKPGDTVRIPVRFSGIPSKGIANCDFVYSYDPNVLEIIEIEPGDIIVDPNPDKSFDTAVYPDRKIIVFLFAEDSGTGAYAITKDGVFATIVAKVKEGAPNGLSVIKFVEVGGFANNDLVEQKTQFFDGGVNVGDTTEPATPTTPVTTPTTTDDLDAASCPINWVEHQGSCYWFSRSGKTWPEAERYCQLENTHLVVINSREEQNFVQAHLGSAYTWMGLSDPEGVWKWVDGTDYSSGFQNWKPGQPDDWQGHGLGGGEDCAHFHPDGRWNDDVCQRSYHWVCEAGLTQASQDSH = 2.04
